- assayExplanation: preservation of ATP in cytokine-treated beta cells – cell-based, ATP luminescence, single point, primary screen (AID 488910)
- testConditions: INS-1E cytokine-induced death, 48 h, at 10 µM, hits give high values, normalised: neutral wells 0, positive control 100
The campaign covered roughly 20,000 compounds. About 25 (0.1%) were called active. The full list was thinned out, with actives kept by preference.
Catalogue of protection from cytokine-induced ATP loss readings, one per entry.
// note: answer is a bare numeric in %

C[C@@H]1CN([C@@H](C)CO)C(=O)Cc2cc(NS(=O)(=O)c3cccs3)ccc2O[C@@H]1CN(C)C(=O)Nc1ccc(C(F)(F)F)cc1: -9.39
Cc1ccc(S(=O)(=O)Nc2ccc3c(c2)C(=O)N([C@@H](C)CO)C[C@@H](C)[C@H](CN(C)CC2CC2)O3)cc1: -3.86
Cc1noc(C)c1S(=O)(=O)N(C)C[C@H]1OCCCC[C@@H](C)Oc2ccc(NC(=O)C3CCCCC3)cc2C(=O)N([C@H](C)CO)C[C@@H]1C: 8.15

Prompt line: Can you look up the measured protection from cytokine-induced ATP loss of C[C@@H]1CN([C@H](C)CO)C(=O)c2cccc(NS(=O)(=O)c3ccc(Cl)cc3)c2O[C@H]1CN(C)Cc1ccc(C(F)(F)F)cc1 for me?
Response line: 6.19

Prompt line: Can you look up the measured protection from cytokine-induced ATP loss of O=C(O)CCCCCCC(=O)N/N=C/c1ccncc1Br for me?
Response line: 6.66

Prompt line: Can you look up the measured protection from cytokine-induced ATP loss of C[C@@H]1CN([C@@H](C)CO)C(=O)c2cc(NS(=O)(=O)c3ccccc3)ccc2O[C@@H]1CN(C)Cc1ccc(C(=O)O)cc1 for me?
Response line: 5.28

Prompt line: Can you look up the measured protection from cytokine-induced ATP loss of O=C(NO)c1ccc(C(=O)N/N=C/c2cc(Br)cc(Br)c2O)cc1 for me?
Response line: 29.8

Prompt line: Can you look up the measured protection from cytokine-induced ATP loss of C[C@H](CO)N1C[C@H](C)[C@H](CN(C)CC2CC2)Oc2ccc(NC(=O)CCN3CCOCC3)cc2C1=O for me?
Response line: -6.34

Prompt line: Can you look up the measured protection from cytokine-induced ATP loss of CC(C)NC(=O)N(C)C[C@H]1Oc2ccc(NS(C)(=O)=O)cc2CC(=O)N([C@@H](C)CO)C[C@@H]1C for me?
Response line: 2.48

Prompt line: Can you look up the measured protection from cytokine-induced ATP loss of C[C@H](CO)N1C[C@H](C)[C@@H](CN(C)C(=O)Nc2ccccc2)Oc2c(NC(=O)CCCCCC(=O)Nc3ccccc3N)cccc2C1=O for me?
Response line: 4.22

Prompt line: Can you look up the measured protection from cytokine-induced ATP loss of C[C@@H]1CN([C@@H](C)CO)C(=O)c2cccc(NS(=O)(=O)c3cccs3)c2O[C@H]1CN(C)Cc1ccncc1 for me?
Response line: 4.56

Prompt line: Can you look up the measured protection from cytokine-induced ATP loss of C[C@H](CO)N1C[C@H](C)[C@@H](CN(C)S(=O)(=O)c2ccccc2)Oc2c(NC(=O)c3ccc(-c4nccs4)cc3)cccc2C1=O for me?
Response line: 5.11

Prompt line: Can you look up the measured protection from cytokine-induced ATP loss of COc1ccc(NC(=O)Nc2ccc3c(c2)CC(=O)N([C@@H](C)CO)C[C@H](C)[C@@H](CN(C)S(=O)(=O)c2cn(C)cn2)O3)cc1 for me?
Response line: 14.9

Prompt line: Can you look up the measured protection from cytokine-induced ATP loss of C[C@H]1CN([C@@H](C)CO)C(=O)c2cc(NS(=O)(=O)c3cccs3)ccc2O[C@@H]1CN(C)C(=O)Nc1ccccc1 for me?
Response line: 10.2

Prompt line: Can you look up the measured protection from cytokine-induced ATP loss of CC(C)NC(=O)N(C)C[C@H]1Oc2c(NS(C)(=O)=O)cccc2C(=O)N([C@@H](C)CO)C[C@H]1C for me?
Response line: 12.8

Data origin, for the record: PubChem BioAssay AID488910
